meta.source: paper PMC4072508

Molecular target: T1, Bcl-w, Q92843
T1 chain: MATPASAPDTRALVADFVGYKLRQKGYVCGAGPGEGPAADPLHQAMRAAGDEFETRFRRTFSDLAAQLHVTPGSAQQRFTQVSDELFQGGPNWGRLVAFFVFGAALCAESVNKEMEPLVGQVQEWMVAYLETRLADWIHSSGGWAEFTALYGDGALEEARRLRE
Test: peptide SPOT array, c-Myc-tagged receptor at 1 uM or 100 nM, anti-c-Myc-Cy3
parameter_measured: SPOT signal as a fraction of Bim BH3's signal on the same receptor and array

binder	measured
GAQHSTMTSTLRRLGEDIFKGVVTKG [CCDC138]	0.64
TNISWRACDHLRCIACDFLVVSYDDY [C8orf37]	0.15
VKVFGKAVQALSRISDEFWLDPSKKG [RAD9B]	0.89

A = ALTVKEMAQMLQSFGTELAETELPDD [MCF2]
B = MVLDPSLAEHLSHFGIDMLKMQKTDK [USP5]
Problem: Which entry shows the lesser value of SPOT signal as a fraction of Bim BH3's signal on the same receptor and array here, A or B ? # respond with the chosen item's label
Result: A
